Where these numbers come from: the supplement of paper PMC10567573

- METHOD: protein stability index of a GFP-peptide fusion (GPS, HEK-293T) (PSI 1-6); higher = more stable;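 also: 24-mer peptide tiles fused after GFP, lentivirally expressed, FACS-sorted into six equal bins by GFP/DsRed ratio, decoded by Illumina sequencing, PSI is the read-weighted mean bin number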
- PROTOCOL CONDITIONS: treatment: MLN4924 1 uM, 8 h; c terminus: a fixed tail appended

SEQ TEXT | protein stability index
RTLPNASTVDNIRSIFGNAVSREL [MLH1] | 3.54
LLVFLILVGIFILAVSRPRSSPDD [SCARA5] | 2.07
DFLIHPPERSDLTLYLIVALATVS [PCDHGC5] | 2.44
RGLPLLKTDFGSCLLQPPSCPNGM [DLC1] | 2.67
QFQDLTGIESMDQCRHTLEQHNWN [FAF2] | 3.37
EINKRTAAENEFVLLKKDVDAAYA [KRT71] | 4.24
FVAENSSLHPESGQENDATSPHFS [CD69] | 4.23
PGPSPDVQLATLAQRVKEVLPHVP [AUP1] | 4.14
AAVESVLHLGLPWRMLRPQLVNSS [PPEF2] | 2.46
PKGEPGSKQSPPMASSPIQPRKGG [FBF1] | 5.38
RVEESGSKKEGKRQGPKEPPRKSG [PBXIP1] | 5.33
AGGYVDVVKVLLESGASIEDHNEN [ANKRD17] | 3.12
FPKDTLMNLHVYISEHEHFTDFNA [CLPTM1] | 1.99

###

- METHOD: protein stability index of a GFP-peptide fusion (GPS, HEK-293T) (PSI 1-6); higher = more stable
- PROTOCOL CONDITIONS: treatment: MLN4924 1 uM, 8 h; c terminus: a fixed tail appended
Rule: protein stability index of 3 or more gives y; anything lower gives n.

SEQ TEXT | LABEL VALUE
ELRRNHCFQDFKEEKPQENKTWRE [ELOA2] | y
ISENLDYEETGFYEIEIQAEDGGA [PCDHGA10] | y
YAPPPTPAPATQMPSTPGFVGYNP [SMARCE1] | y
FAWPFYQPVDAIKLNLPDYHKIIK [BRD3] | n
EEEVVEGEKEVEALKKSADWVSDW [BNIP3L] | y
YLPTRGGTTMASGGRFRCPSCRHE [TRIM55] | y
DGASVNENHEIYMKDSMSAAEVGT [EPB41L3] | y
KTTLARQLQHDFPRALIFSTDDFF [N4BP2L1] | n
HSSPVDLKIPQVRGMDLSWESRTG [LCOR] | y
NIKANDYANAVLQALSNVPPLRNY [USP39] | n
IVTKFYQLSATGQKLYVRLFQRKL [FAN1] | n
QSAFLHLPLPEQIHKASATIIEPA [INTS4] | y
GSAAGHVLVKDNGLGCKDLDLIFH [TENT5C] | n
GPLFNFDVHDDVRLLSDATVEKDE [FAM50A] | y
IHPDEDISLEERRAQLPKYQRNLP [ZNF207] | y
SAWKTVACGGTRDQLFMQEKARQL [MYBL2] | y
KETLRLHPDIFLPSEICDRLVNEY [ZER1] | n
LNRRNGSLRIALSEHLKQRREVAK [EDNRA] | y
GQRFYSRVLSPLHRGPSGHTEASA | y
AELLIFSVPIVYEKYKTQIDHYVG [RTN3] | n
AIAWCLRNEGVSSVLLGASNADQL [KCNAB2] | n
SSRFSSSRLLGSASPSSSVRLGSF [PRPH] | n
FIEALIQQYQEQLDKSTKLVETAI [TRIM63] | n
KEEAQAEIEQYRLQREKEFKAKEA [ATP6V1G1] | y
NIPQMADTLFERATNSSWVVVFKA [SNAP91] | n
MLTVMTKYQANITETQRLGLAMAL [FANCE] | n
PEIQKVRAQEREQIKALNNKFASF [KRT71] | y
ATEPATCFPSTQKPTEPSVPVQPL [FBF1] | y
TNVRLQPAATWNLEEKRLTWRLPD [FCHO1] | y
AELFSYVLQDRAAKGSLGTQIGFA [FEM1A] | n
FVHGLEDEMYEVRIAAVEALCMLA [INTS4] | n
KLRGPEPAATEAYGSGDTPGGPCD [TBX6] | y
QMTPTNLAVCLAPSLFHLNTLKRE [DLC1] | n
LVVAVAAVSCVFLAFVIVLLAHRL [PCDHGA10] | n
EAARLEYDAYRTDLEELSLGPRDA [ARFIP2] | y
EPHGKMFNEQTWEVSQQDPSHGEV [ZSCAN9] | y
VCALCPVLGAHRGHPVGLALEAAV [TRIM14] | n
ESVTHHDYRMELAQAGTPAPTKPH [SPAG8] | y
ARLNGSVASYILASHNGISYKDLD [TENT5D] | n
KFMLREQFEANGYFFKRPYPFVLF [KMT2E] | n
NNMNAVNLFFAWIKIFKYISFNKT [PKD2L1] | n
IFDEDHDEMVIVKDIDMFSMCEHH [GCH1] | y
LGMVGLFGTIISGIQLLIVEYKDI [SLC35F2] | y
QSVSYSKLLSVIVWMLMLLLAVPN [P2RY14] | y
